# Tgt: tau (Homo sapiens, UniProt P10636)
# Sequence (P10636 623-695 limits assumed): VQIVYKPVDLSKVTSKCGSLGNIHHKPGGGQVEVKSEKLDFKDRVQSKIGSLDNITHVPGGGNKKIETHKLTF
# Run Description: MCE Phenols Library screening, tau biosensor cell seeding assay (AvZ)
# Format: cell-based
# Condition Notes: Z score, replicate 1
Assay Readout: Z repl 1
One number for each entry.

[[record]]
compound = "COc1cc(O)c2c(=O)c(OC)c(-c3ccc(OC)c(O)c3)oc2c1"
tgt = "tau (Homo sapiens, UniProt P10636)"
measured_result = -1.206

[[record]]
compound = "C[C@@H]1O[C@@H](O[C@H]2[C@H](Oc3c(-c4ccc(O)cc4)oc4cc(O)cc(O)c4c3=O)O[C@H](CO)[C@@H](O)[C@@H]2O)[C@H](O)[C@H](O)[C@H]1O [Kaempferol 3-neohesperidoside]"
tgt = "tau (Homo sapiens, UniProt P10636)"
measured_result = -1.386


Please look at this compound and report its Z repl 1: "O=C(O)C[C@H](C(=O)O)[C@H]1c2c(cc(O)c(O)c2O)C(=O)O[C@@H]1C(=O)O" -1.01

The measured values listed here are drawn from paper PMC11784839.
